System: Rattus norvegicus
assayText: Inhibition of carrageenan hind paw edema in rats after oral administration of a dose of 5 mg/kg
Assay type: functional
Listing of entries alongside the reported inhibition in vivo at 5 mg/kg.
Provide the reading as a plain figure in %.

For orientation, consider the following solved cases.
CC(C(=O)OCc1ccccc1)c1ccc2c(c1)SCC1CCCCC1C2=O (stereo unspecified) | 25.6
CC(C(=O)N1CCOCC1)c1ccc2c(c1)SCC1CCCCC1C2=O (stereo unspecified) | 7.1
COc1ccc2c(c1)c(CC(=O)O)c(C)n2C(=O)c1ccc(Cl)cc1 | 36.3
CCCCCCOC(=O)C(C)c1ccc2c(c1)SCC1CCCCC1C2=O (stereo unspecified) | 28.3
CCCCCOC(=O)C(C)c1ccc2c(c1)SCC1CCCCC1C2=O (stereo unspecified) | 22.1
CC(C(N)=O)c1ccc2c(c1)SCC1CCCCC1C2=O (stereo unspecified) | 30.5
CC(C(=O)NCCO)c1ccc2c(c1)SCC1CCCCC1C2=O (stereo unspecified) | 22.3
CC(C(=O)OCCN1CCOCC1)c1ccc2c(c1)SCC1CCCCC1C2=O (stereo unspecified) | 22.2

Item: CC(C(=O)OCCCc1ccccc1)c1ccc2c(c1)SCC1CCCCC1C2=O (stereo unspecified) | System: Rattus norvegicus | inhibition in vivo at 5 mg/kg: 26

Tested on Rattus norvegicus: CC(C(=O)N(C)C)c1ccc2c(c1)SCC1CCCCC1C2=O (stereo unspecified) . Observed inhibition in vivo at 5 mg/kg: 2.7

Bench note, Rattus norvegicus: entry CCCOC(=O)C(C)c1ccc2c(c1)SCC1CCCCC1C2=O (stereo unspecified) , its inhibition in vivo at 5 mg/kg = 25.4
